# protocol.notes: Selectivity index, expressed as the ratio of CC50 and EC50
# reported.conditions: read-out: SI
readout: selectivity ratio

Query string: Answer with reported selectivity ratio of CC(C)CN(CC(O)C(NC(=O)O[C@H]1CCOC1)Sc1ccccc1)S(=O)(=O)c1ccc(N)cc1 (stereo partly specified)
Result string: > 1

----------
Kindly state CC50 for each of the entries shown.
# protocol.notes: Concentration required to cause 50% death of uninfected MT-4 cells.
# Assay type: ADME, cell-based, MT4
# reported.conditions: human

| compound | CC50 |
| --- | --- |
| CC(C)CN(C[C@@H](O)[C@H](NC(=O)O[C@@H]1CCOC1)Sc1ccccc1)S(=O)(=O)c1ccc(N)cc1 | > 50 µM |
| CC(C)CN(C[C@H](O)[C@H](NC(=O)O[C@@H]1CCOC1)Sc1ccccc1)S(=O)(=O)c1ccc(N)cc1 | > 50 µM |
| CC(C)CN(C[C@H](O)[C@@H](NC(=O)O[C@@H]1CCOC1)Sc1ccccc1)S(=O)(=O)c1ccc(N)cc1 | > 50 µM |
| CC(C)CN(CC(O)C(NC(=O)O[C@H]1CCOC1)Sc1ccccc1)S(=O)(=O)c1ccc(N)cc1 (stereo partly specified) | > 50 µM |

Hey, can you go through the list below and give me CC50 for every item?
1. CC(C)CN(C[C@@H](O)[C@H](Cc1ccccc1)NC(=O)O[C@H]1CCOC1)S(=O)(=O)c1ccc(N)cc1
2. CC(C)CN(C[C@@H](O)[C@@H](NC(=O)O[C@@H]1CCOC1)Sc1ccccc1)S(=O)(=O)c1ccc(N)cc1

Result string:
1: > 50 µM; 2: > 50 µM
